- assay_info: Biodistribution of labeled radioligands in male Sprague-Dawley rats
- Format: in vivo
- assay_setup: 10 min post-injection; mean ± SD, n = 3
Threshold check on % ID/g Hippocamp.: strictly below 0.5 % ID/g is Met; on or above 0.5 % ID/g is Not met.

>  <compound>
CN([11CH3])Cc1ccccc1Sc1ccc(F)cc1N [[^11C]AFA]

>  <classification>
Met

$$$$
>  <compound>
CN([11CH3])Cc1ccccc1Sc1ccc(CF)cc1N [[^11C]AFM]

>  <classification>
Not met

$$$$
>  <compound>
Cc1ccc(Sc2ccccc2CN(C)[11CH3])c(N)c1 [[^11C]MADAM]

>  <classification>
Not met

$$$$
>  <compound>
CN(C)Cc1ccccc1Sc1ccc(CC[18F])cc1N [[^18F]AFE]

>  <classification>
Met

$$$$
>  <compound>
CN(C)Cc1ccccc1Sc1ccc([18F])cc1N [[^18F]AFA]

>  <classification>
Not met

$$$$
>  <compound>
CN(C)Cc1ccccc1Sc1ccc(CCF)cc1N [[^11C]AFE]

>  <classification>
Met

$$$$

----------
- Test system: SERT
- assay_info: Baboon PET imaging: brain uptake, kinetic analysis and SERT parameters
- Format: in vivo
- assay_setup: one-tissue compartment model; baboons, mean ± SD of four experiments
Threshold-based label: K1 Thalamus under 1 mL/g/min gives condition met, K1 Thalamus not under 1 mL/g/min gives condition not met.

>  <molecule>
CN(C)Cc1ccccc1Sc1ccc(C#N)cc1N [[^11C]DASB]

>  <classification>
condition not met

$$$$
>  <molecule>
CN(C)Cc1ccccc1Sc1ccc(I)cc1N [[^11C]ADAM]

>  <classification>
condition not met

$$$$
>  <molecule>
CN([11CH3])Cc1ccccc1Sc1ccc(CF)cc1N [[^11C]AFM]

>  <classification>
condition not met

$$$$
>  <molecule>
[11CH3]Sc1ccc([C@H]2CN3CCC[C@H]3c3ccccc32)cc1 [[^11C]McN 5652]

>  <classification>
condition not met

$$$$
>  <molecule>
CN(C)Cc1ccccc1Sc1ccc(Br)cc1N [[^11C]DAPA]

>  <classification>
condition met

$$$$

----------
- assay_info: Biodistribution of labeled radioligands in male Sprague-Dawley rats
- Format: in vivo
- assay_setup: 30 min post-injection; mean ± SD, n = 3
Everything with % ID/g Frontal Ctx. lower than 1 % ID/g is class 0; everything else, including exactly 1 % ID/g, is class 1.

>  <molecule>
CN([11CH3])Cc1ccccc1Sc1ccc(CF)cc1N [[^11C]AFM]

>  <classification>
class 1

$$$$
>  <molecule>
CN(C)Cc1ccccc1Sc1ccc([18F])cc1N [[^18F]AFA]

>  <classification>
class 0

$$$$
>  <molecule>
CN(C)Cc1ccccc1Sc1ccc(CC[18F])cc1N [[^18F]AFE]

>  <classification>
class 0

$$$$
>  <molecule>
CN(C)Cc1ccccc1Sc1ccc(CCF)cc1N [[^11C]AFE]

>  <classification>
class 0

$$$$
>  <molecule>
Cc1ccc(Sc2ccccc2CN(C)[11CH3])c(N)c1 [[^11C]MADAM]

>  <classification>
class 1

$$$$
>  <molecule>
CN([11CH3])Cc1ccccc1Sc1ccc(F)cc1N [[^11C]AFA]

>  <classification>
class 0

$$$$

----------
- assay_info: Biodistribution of labeled radioligands in male Sprague-Dawley rats
- Type: in vivo
- assay_setup: 30 min post-injection; mean ± SD, n = 3
- From the text: Appropriately labeled compounds were studied in animals to assess their binding characteristics in the brain. Procedures for these biodistribution studies are as follows. […] The brain regions (cerebellum, hippocampus, striatum, frontal cortex, thalamus and hypothalamus), along with samples of blood and part of the tail, were removed, weighed, and counted in a Packard Cobra II gamma counter. […]
Overview of reported % ID/g Cerebellum across a group of compounds:
readout_kind: % ID/g Cerebellum (% ID/g)

>  <compound>
Cc1ccc(Sc2ccccc2CN(C)[11CH3])c(N)c1 [[^11C]MADAM]

>  <unit_name>
% ID/g

>  <reported_result>
0.55

$$$$
>  <compound>
CN(C)Cc1ccccc1Sc1ccc([18F])cc1N [[^18F]AFA]

>  <unit_name>
% ID/g

>  <reported_result>
0.20

$$$$
>  <compound>
CN(C)Cc1ccccc1Sc1ccc(CC[18F])cc1N [[^18F]AFE]

>  <unit_name>
% ID/g

>  <reported_result>
0.13

$$$$
>  <compound>
CN(C)Cc1ccccc1Sc1ccc(CCF)cc1N [[^11C]AFE]

>  <unit_name>
% ID/g

>  <reported_result>
0.12

$$$$
>  <compound>
CN(C)Cc1ccccc1Sc1ccc(C[18F])cc1N [[^18F]AFM]

>  <unit_name>
% ID/g

>  <reported_result>
0.23

$$$$
>  <compound>
CN([11CH3])Cc1ccccc1Sc1ccc(CF)cc1N [[^11C]AFM]

>  <unit_name>
% ID/g

>  <reported_result>
0.41

$$$$
>  <compound>
CN([11CH3])Cc1ccccc1Sc1ccc(F)cc1N [[^11C]AFA]

>  <unit_name>
% ID/g

>  <reported_result>
0.14

$$$$

----------
- Test system: SERT
- assay_info: Baboon PET imaging: brain uptake, kinetic analysis and SERT parameters
- Assay type: in vivo
- assay_setup: one-tissue compartment model; baboons, mean ± SD of four experiments
Listed here: items and their measured K2 Temporal Cortex.
readout_kind: K2 Temporal Cortex (min⁻¹)

>  <compound>
CN(C)Cc1ccccc1Sc1ccc(C#N)cc1N [[^11C]DASB]

>  <readout_kind>
K2 Temporal Cortex

>  <reported_result>
0.047

$$$$
>  <compound>
[11CH3]Sc1ccc([C@H]2CN3CCC[C@H]3c3ccccc32)cc1 [[^11C]McN 5652]

>  <readout_kind>
K2 Temporal Cortex

>  <reported_result>
0.025

$$$$
>  <compound>
CN(C)Cc1ccccc1Sc1ccc(I)cc1N [[^11C]ADAM]

>  <readout_kind>
K2 Temporal Cortex

>  <reported_result>
0.027

$$$$
>  <compound>
CN([11CH3])Cc1ccccc1Sc1ccc(CF)cc1N [[^11C]AFM]

>  <readout_kind>
K2 Temporal Cortex

>  <reported_result>
0.030

$$$$
>  <compound>
CN(C)Cc1ccccc1Sc1ccc(Br)cc1N [[^11C]DAPA]

>  <readout_kind>
K2 Temporal Cortex

>  <reported_result>
0.019

$$$$

----------
Reported Regional uptake peak time Thalamus values for a set of molecules
- System: SERT
- assay_info: Baboon PET imaging: brain uptake, kinetic analysis and SERT parameters
- Type: in vivo
- assay_setup: baboons, mean ± SD of four experiments

>  <molecule>
[11CH3]Sc1ccc([C@H]2CN3CCC[C@H]3c3ccccc32)cc1 [[^11C]McN 5652]

>  <unit_name>
min

>  <Regional uptake peak time Thalamus>
41

$$$$
>  <molecule>
CN(C)Cc1ccccc1Sc1ccc(I)cc1N [[^11C]ADAM]

>  <unit_name>
min

>  <Regional uptake peak time Thalamus>
51

$$$$
>  <molecule>
CN(C)Cc1ccccc1Sc1ccc(C#N)cc1N [[^11C]DASB]

>  <unit_name>
min

>  <Regional uptake peak time Thalamus>
24

$$$$
>  <molecule>
CN(C)Cc1ccccc1Sc1ccc(Br)cc1N [[^11C]DAPA]

>  <unit_name>
min

>  <Regional uptake peak time Thalamus>
69

$$$$
>  <molecule>
CN([11CH3])Cc1ccccc1Sc1ccc(CF)cc1N [[^11C]AFM]

>  <unit_name>
min

>  <Regional uptake peak time Thalamus>
54

$$$$

----------
The entries below come with measured Kp values attached.
- System: SERT
- assay_info: Baboon PET imaging: brain uptake, kinetic analysis and SERT parameters
- Format: in vivo
- assay_setup: male, baboon, brain, hippocampus, intravenous; one-tissue compartment model; baboons, mean ± SD of four experiments; read-out: VT Hippocampus
readout_kind: Kp

>  <compound>
CN(C)Cc1ccccc1Sc1ccc(Br)cc1N [[^11C]DAPA]

>  <readout_kind>
Kp

>  <reported_result>
44.7

$$$$
>  <compound>
CN(C)Cc1ccccc1Sc1ccc(C#N)cc1N [[^11C]DASB]

>  <readout_kind>
Kp

>  <reported_result>
27.3

$$$$
>  <compound>
CN(C)Cc1ccccc1Sc1ccc(I)cc1N [[^11C]ADAM]

>  <readout_kind>
Kp

>  <reported_result>
41.1

$$$$

----------
Measured K2 Midbrain values are reported for all entries that follow.
- Tested on: SERT
- assay_info: Baboon PET imaging: brain uptake, kinetic analysis and SERT parameters
- Format: in vivo
- assay_setup: one-tissue compartment model; baboons, mean ± SD of four experiments
readout_kind: K2 Midbrain (min⁻¹)

>  <compound>
CN(C)Cc1ccccc1Sc1ccc(I)cc1N [[^11C]ADAM]

>  <assay_target>
SERT

>  <reported_result>
0.018

$$$$
>  <compound>
CN(C)Cc1ccccc1Sc1ccc(C#N)cc1N [[^11C]DASB]

>  <assay_target>
SERT

>  <reported_result>
0.027

$$$$
>  <compound>
CN([11CH3])Cc1ccccc1Sc1ccc(CF)cc1N [[^11C]AFM]

>  <assay_target>
SERT

>  <reported_result>
0.017

$$$$
>  <compound>
[11CH3]Sc1ccc([C@H]2CN3CCC[C@H]3c3ccccc32)cc1 [[^11C]McN 5652]

>  <assay_target>
SERT

>  <reported_result>
0.017

$$$$
>  <compound>
CN(C)Cc1ccccc1Sc1ccc(Br)cc1N [[^11C]DAPA]

>  <assay_target>
SERT

>  <reported_result>
0.012

$$$$
